System under test: T1, PDZD2_2, O15018
T1 sequence (O15018 329-429, limits assumed, looked up): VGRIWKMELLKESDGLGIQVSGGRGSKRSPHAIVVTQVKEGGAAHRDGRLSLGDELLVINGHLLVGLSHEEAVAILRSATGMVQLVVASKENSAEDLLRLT
Experiment: holdup assay
Parameters: key: below the threshold = too weak to quantify, mostly under pKd 3.1 to 4
Condition: plain residues with an end cap or a label only (N-terminal biotin on a linker: ado-ado)
Experimental readout: pKd
Numbers only.

{"Binder": "VDSTVKVWTC [TRAF7, Q6Q0C0]", "Experimental readout": "pKd", "Val": 4.27}
{"Binder": "PRAEAEDSFL [PDGFRB, P09619]", "Experimental readout": "pKd", "Val": 4.43}
{"Binder": "KKMPSIESDV [GRIN2A, Q12879]", "Experimental readout": "pKd", "Val": 4.91}

For each of the items listed, what is its pKd?
1. RRISSLESEV [GRIN2C, Q14957]
2. GSGAVEMESV [AQP6, Q13520]
3. RKPKPSSSCC [RAB9A, P51151]
4. QSARLWETSI [ADAM22, Q9P0K1]
5. PDGQCTVTEV [RNF146, Q9NTX7]
6. QGLAERISVL [PRKD2, Q9BZL6]

[4.98, 3.7, 4.35, 4.46, 4.79, 4.32]

FYI, the data here is from paper PMC9482650.
